- Test system: Fibroblast
- procedureSummary: Multiplex assay against human fibroblast
- Type: toxicity, cell-based
- conditionDescription: 48 h, 10 µM, compound concentration 10 uM, replicate 2
In this section we review reported Population Mitochondria Different-Phenotype (%) values for a set of compounds.
measurementLabel: Population Mitochondria Different-Phenotype (%)

smilesRecord: Cl.Oc1ccc2c3c1O[C@H]1c4[nH]c5c(c4C[C@@]4(O)[C@@H](C2)N(CC2CC2)CC[C@]314)C[C@@]1(O)[C@H]2Cc3ccc(O)c4c3[C@@]1(CCN2CC1CC1)[C@H]5O4
unit: %
val: 1

smilesRecord: CCCS(=O)(=O)c1nc(NC2CC2)cc(-c2ccc3c(ccn3C3CC(C)(C)NC(C)(C)C3)c2)n1
unit: %
val: 9

smilesRecord: C=C1/C(=C\C=C2/CCC[C@]3(C)[C@@H]([C@H](C)/C=C/[C@H](C)C(C)C)CC[C@@H]23)C[C@@H](O)C[C@@H]1O
unit: %
val: 1

smilesRecord: CCn1c(=O)c(-c2ccc(-c3cncs3)cc2Cl)cc2cnc(Nc3ccc(N4CCN(C)CC4)cc3)nc21
unit: %
val: 4
